# Test system: Fer (mouse);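 further: 11-residue human phosphosite peptides and single-mutation variants displayed on the E. coli surface, counted by deep sequencing, each peptide's frequency after selection divided by its frequency in the unselected input library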;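 further: frequency after pTyr selection over input frequency; kinase dosed for 20-30% of maximal phosphorylation in three min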
# ASSAY OVERVIEW: phosphorylation enrichment, bacterial display (enrichment ratio); higher = better substrate or ligand; peptides without Tyr show the background
Entry class follows phosphorylation enrichment: 0 = under 0.4, 1 = from 0.4 up to 0.6, 2 = 0.6 and over

Previously resolved entries follow.
Query: Which bin, given its phosphorylation enrichment, does DTLASYLDKVR [KRT12_Y139_R135T] occupy?
Reply: 0

Query: Which bin, given its phosphorylation enrichment, does SIGLGYHKDLQ [NF1_Y1169] occupy?
Reply: 0

Query: Which bin, given its phosphorylation enrichment, does PFADPYFDFEI [ZC3H18_Y371_YF] occupy?
Reply: 2

Query: Which bin, given its phosphorylation enrichment, does VFGVSYDEYRY [CFTR_Y512_I507V] occupy?
Reply: 1

Further cases:
Query: Which bin, given its phosphorylation enrichment, does FPCSVYVPDEW [INSR_Y1011] occupy?
Reply: 2

Query: Which bin, given its phosphorylation enrichment, does NLNGKYFKPRA [ANGPTL3_Y417_N418Y_YF] occupy?
Reply: 0

Query: Which bin, given its phosphorylation enrichment, does SVCPDYDLCSV [SQSTM1_Y148] occupy?
Reply: 2

Query: Which bin, given its phosphorylation enrichment, does IGVDSYSVCKR [RPS6KA3_Y433_G431D] occupy?
Reply: 0

Query: Which bin, given its phosphorylation enrichment, does `TRTEAYAVSSF` occupy?
Reply: 0

Query: Which bin, given its phosphorylation enrichment, does RHCSGYVLIAM [EFR3A_Y73_R70C] occupy?
Reply: 1

Attribution: the supplement of paper PMC10065799
